Test system: influenza A(H1N1)pdm09 virus isolates with NA-I223V + S247N
Format: biochemical
experimental_parameters: read-out: NA inhibitors IC50, average ± SD
reported_metric: pIC50
One number for each entry, as −log10 of the molar value.

Which pIC50 is reported for this compound? CCC(CC)[C@H](NC(C)=O)[C@@H]1[C@H](O)[C@@H](C(=O)O)C[C@H]1N=C(N)N
9.54
